Target: UniProt:Q8ILY1
Assay: Fluorescence-based high-throughput DNA polymerase assay (molecular beacon), primary screen and dose-response
Type: biochemical
Settings: DRC-2; 180'; concentration 10
Source text: The HT assay employs a molecular beacon, a stem-loop DNA template with a Cy3 dye and the Black Hole Quencher on the 3′ and 5′ ends of the DNA, respectively. Pf-apPOL concentration is based on a calculated absorptivity of ε280 = 56750 M^−1 cm^−1. […] To identify apPOL inhibitors we utilised our previously developed high-throughput DNA polymerase assay. […] The assay accurately recapitulates the kinetic behaviour of apPOL, as measured through more conventional low-throughput gel-based assays. […]
measured endpoint: % inhibition apPOL 180' (%)
State the answer as a number, implicitly in %.

Here's what some known entries look like.
> print(dat)
                                   compound    assay.target  scale.unit  recorded.measurement
1  O=C(Cn1ccc2c(=O)[nH]ccc21)Nc1cccc(Cl)c1 [Molecule 23, O=C(Cn1ccc2c1cc[nH]c2=O)Nc1cccc(c1)Cl]  UniProt:Q8ILY1           %                    57
2  CCCc1ccc(Oc2coc3cc(OC)ccc3c2=O)cc1 [KU0193249]  UniProt:Q8ILY1           %                    12
3  O=C(NNC(=O)c1ccc(Cl)cc1)C(=O)NNC(=O)c1ccc(Cl)cc1 [Molecule 25]  UniProt:Q8ILY1           %                    30

Kindly review the next compound as well.
Provide the documented % inhibition apPOL 180' with UniProt:Q8ILY1 as the system for CC(=O)Nc1cc(C(=O)c2cccs2)nn(-c2ccc(Cl)cc2)c1=O [KU0267905] 4

---

Molecular target: P. falciparum apicoplast DNA polymerase (Pf-apPOL) (Plasmodium falciparum, UniProt Q8ILY1)
Sequence (Q8ILY1 entry or part of it): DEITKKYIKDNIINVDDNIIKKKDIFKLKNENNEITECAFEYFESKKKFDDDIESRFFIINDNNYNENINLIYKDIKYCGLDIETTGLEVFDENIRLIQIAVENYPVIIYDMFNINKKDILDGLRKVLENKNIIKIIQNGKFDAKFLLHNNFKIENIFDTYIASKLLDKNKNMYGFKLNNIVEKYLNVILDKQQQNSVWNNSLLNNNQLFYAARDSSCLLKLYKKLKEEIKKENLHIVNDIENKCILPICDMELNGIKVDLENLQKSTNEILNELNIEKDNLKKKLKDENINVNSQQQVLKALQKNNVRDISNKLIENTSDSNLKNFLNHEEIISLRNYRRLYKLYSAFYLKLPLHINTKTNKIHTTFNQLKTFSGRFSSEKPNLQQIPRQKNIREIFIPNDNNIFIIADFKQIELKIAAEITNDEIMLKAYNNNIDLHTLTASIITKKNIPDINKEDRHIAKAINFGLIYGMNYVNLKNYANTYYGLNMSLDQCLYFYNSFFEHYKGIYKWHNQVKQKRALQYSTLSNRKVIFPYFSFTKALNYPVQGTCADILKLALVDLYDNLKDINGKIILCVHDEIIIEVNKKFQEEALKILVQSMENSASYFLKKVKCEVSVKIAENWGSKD
Assay: Fluorescence-based high-throughput DNA polymerase assay (molecular beacon), primary screen and dose-response
Assay type: biochemical
Details: DRC-2, 5', concentration 10
Excerpt: The HT assay employs a molecular beacon, a stem-loop DNA template with a Cy3 dye and the Black Hole Quencher on the 3′ and 5′ ends of the DNA, respectively. Pf-apPOL concentration is based on a calculated absorptivity of ε280 = 56750 M^−1 cm^−1. […] To identify apPOL inhibitors we utilised our previously developed high-throughput DNA polymerase assay. […] The assay accurately recapitulates the kinetic behaviour of apPOL, as measured through more conventional low-throughput gel-based assays. […]
measured endpoint: % inhibition Apo pol 5' (%)
State the answer as a number, implicitly in %.

For O=C(NNC(=O)C(F)(F)Sc1ccccc1)c1ccsc1 [Molecule 68, O=C(C(Sc1ccccc1)(F)F)NNC(=O)c1cscc1] , what is its reported % inhibition Apo pol 5'? 23

For O=C(Nc1nnc(-c2cccs2)o1)c1ccc([N+](=O)[O-])o1 , what is its reported % inhibition Apo pol 5'? 30

For Cc1ncc(CSc2nc(C(C)(C)C)cs2)c(CO)c1O , what is its reported % inhibition Apo pol 5'? 24

For Cc1nn(CC(=O)NCCSCc2ccco2)c(C)c1Br , what is its reported % inhibition Apo pol 5'? 16

For O=C(Nc1nnc(-c2ccno2)o1)c1ccc2c(c1)OCO2 , what is its reported % inhibition Apo pol 5'? 18

---

biological target: P. falciparum apicoplast DNA polymerase (Pf-apPOL) (Plasmodium falciparum); experiment: Fluorescence-based high-throughput DNA polymerase assay (molecular beacon), primary screen and dose-response; type: biochemical; conditions: DRC-2; 180'; concentration 10
Measured % inhibition apPOL 180', listed per entry.
State the answer as a number, implicitly in %.

Here's what some known entries look like.
> print(dat)
                                   compound  scale.unit  recorded.measurement
1  O=C(O)c1cccc(N2N=C(C(F)(F)F)/C(=C/c3ccc(-c4ccccc4[N+](=O)[O-])o3)C2=O)c1 [Molecule 100]           %                    43
2  COc1ccc(-c2cc(=O)c3cc(O)ccc3o2)cc1OC [KU0193655]           %                    21
3  O=c1cc(-c2ccccc2Cl)oc2c(NS(=O)(=O)c3cc(Cl)cc(Cl)c3O)ccc(O)c12 [KU0104277]           %                    33

Kindly review the next compound as well.
For CCCCC(=O)N1CCc2c(nc3cc(-c4ccccc4Cl)[nH]n3c2=O)C1 [Molecule 37] , what is its reported % inhibition apPOL 180'? 23

---

Measured % inhibition apPOL 180', listed per entry.
molecular target: P. falciparum apicoplast DNA polymerase (Pf-apPOL) (Plasmodium falciparum); experiment: Fluorescence-based high-throughput DNA polymerase assay (molecular beacon), primary screen and dose-response; type: biochemical; settings: DRC-1; 180'; concentration 5
State the answer as a number, implicitly in %.

For Cc1cccc(CC(=O)N2CCc3c(nc4cc(-c5ccccc5)[nH]n4c3=O)C2)c1 , what is its reported % inhibition apPOL 180'? 13

For CSCCC(C)(O)CNC(=O)C1CC1 (stereo not shown) , what is its reported % inhibition apPOL 180'? 14.7367

For O=c1[nH]c2ccc(Br)cc2c(-c2ccccc2)c1C1=NNC(c2ccco2)C1 (stereo not shown) , what is its reported % inhibition apPOL 180'? -2.038

For O=C1N/C(=N/c2ccccc2Cl)S/C1=C/c1ccc([N+](=O)[O-])o1 , what is its reported % inhibition apPOL 180'? 9.438

For CN(C)C=CC(=O)c1ccccn1 , what is its reported % inhibition apPOL 180'? -0.5089

For O=C(Nc1nnc(-c2ccno2)o1)c1ccc2c(c1)OCO2 , what is its reported % inhibition apPOL 180'? -16.6627

---

target: P. falciparum apicoplast DNA polymerase (Pf-apPOL) (Plasmodium falciparum, UniProt Q8ILY1); test: Fluorescence-based high-throughput DNA polymerase assay (molecular beacon), primary screen and dose-response; type: biochemical; settings: DRC-2; 5'; concentration 5
The label depends only on % inhibition Apo pol 5': Met if it is at least 20%, Not met if it is smaller.

> print(dat)
                                   compound  group.label
1  O=C1N/C(=N/c2ccccc2Cl)S/C1=C/c1ccc([N+](=O)[O-])o1          Met

Could you verify whether the entry O=C(Nc1c2c(nn1-c1ccccc1)CSC2)c1ccco1 shows % inhibition Apo pol 5' of no less than 20%? Met

Could you verify whether the entry COc1ccc(C2CC(c3ccc(Cl)cc3Cl)Nc3nc(N)nn32)cc1OC (stereo not drawn) shows % inhibition Apo pol 5' of no less than 20%? Met

Could you verify whether the entry CN(C)C1C(c2ccccc2)=C(c2ccccc2)SC(c2ccccc2)C1[N+](=O)[O-] (stereo not drawn) shows % inhibition Apo pol 5' of no less than 20%? Not met

Could you verify whether the entry CCN1C(=O)C(=Cc2cccc(OC)c2O)SC1=S shows % inhibition Apo pol 5' of no less than 20%? Not met

Could you verify whether the entry OC(C#Cc1ccccc1)c1ccco1 (stereo not drawn) shows % inhibition Apo pol 5' of no less than 20%? Met

Could you verify whether the entry O=C1NN(c2ccc(Cl)c(Cl)c2)C(=O)/C1=C/c1ccc(-c2ccc3c(c2)C(=O)OC3)o1 shows % inhibition Apo pol 5' of no less than 20%? Not met

Could you verify whether the entry Cc1ccc(C)n1-c1ccc(C(=O)NNC(=O)c2ccc3nccnc3c2)cc1 shows % inhibition Apo pol 5' of no less than 20%? Not met

Could you verify whether the entry O=C1C(=Cc2ccccc2O)Oc2ccc(O)cc21 shows % inhibition Apo pol 5' of no less than 20%? Not met

---

target: bacteriophage T4 DNA polymerase (Enterobacteria phage T4); construct: made in house; assay: Counter-screen against bacteriophage T4 DNA polymerase; format: biochemical; details: DRC-2; read at 90'; concentration 2.5
Sequence (P04415 whole entry): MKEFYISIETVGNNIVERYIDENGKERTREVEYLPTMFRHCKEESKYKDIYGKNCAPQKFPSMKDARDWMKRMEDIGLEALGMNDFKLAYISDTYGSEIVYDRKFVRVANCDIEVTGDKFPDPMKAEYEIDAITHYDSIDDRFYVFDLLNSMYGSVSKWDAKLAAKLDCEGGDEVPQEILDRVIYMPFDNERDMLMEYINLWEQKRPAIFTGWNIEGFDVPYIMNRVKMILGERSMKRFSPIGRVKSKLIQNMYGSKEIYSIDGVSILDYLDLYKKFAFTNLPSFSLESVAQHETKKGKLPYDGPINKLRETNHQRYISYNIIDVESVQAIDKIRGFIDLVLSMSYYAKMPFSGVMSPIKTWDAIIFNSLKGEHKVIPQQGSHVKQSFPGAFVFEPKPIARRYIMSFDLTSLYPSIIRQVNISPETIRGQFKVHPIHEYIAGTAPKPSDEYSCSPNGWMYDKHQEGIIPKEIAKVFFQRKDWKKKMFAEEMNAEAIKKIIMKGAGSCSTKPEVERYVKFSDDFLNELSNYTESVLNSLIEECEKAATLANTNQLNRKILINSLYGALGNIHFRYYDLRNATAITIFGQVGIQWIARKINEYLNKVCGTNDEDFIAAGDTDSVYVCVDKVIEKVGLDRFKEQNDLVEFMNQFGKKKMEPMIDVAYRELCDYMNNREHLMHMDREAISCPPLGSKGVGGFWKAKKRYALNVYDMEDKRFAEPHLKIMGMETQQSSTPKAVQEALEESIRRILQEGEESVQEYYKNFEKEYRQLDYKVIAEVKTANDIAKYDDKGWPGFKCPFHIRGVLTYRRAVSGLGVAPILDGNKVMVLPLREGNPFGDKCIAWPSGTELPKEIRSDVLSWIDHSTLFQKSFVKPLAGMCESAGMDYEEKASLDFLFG
measured endpoint: % inhibition T4 90' 2.5 (%)
State the answer as a number, implicitly in %.

For Nc1cc(Oc2ccc(O)c(N)c2)ccc1O , what is its reported % inhibition T4 90' 2.5? -7

For Cc1ccc(N2CCC(NC(=O)Cc3cccs3)C2=O)cc1C (centres unmarked) , what is its reported % inhibition T4 90' 2.5? 13

For Cc1ccsc1Cn1c(C)ccc1C , what is its reported % inhibition T4 90' 2.5? -5

For CC(=O)Nc1cc(C(=O)c2cccs2)nn(-c2ccc(Cl)cc2)c1=O , what is its reported % inhibition T4 90' 2.5? 5

For CCCc1ccc(Oc2coc3cc(OC)ccc3c2=O)cc1 , what is its reported % inhibition T4 90' 2.5? 8

For Cc1cccc(-c2noc(C(=O)NNC(=O)C(Cl)(Cl)Cl)n2)c1 , what is its reported % inhibition T4 90' 2.5? 7

For CC(C)CC(C(=O)O)N1C(=O)C2C3C=CC(C2C1=O)C1C(=O)N(C(CC(C)C)C(=O)O)C(=O)C31 (centres unmarked) , what is its reported % inhibition T4 90' 2.5? 4
